Target: T1, Cas6-1 (Saccharolobus/Sulfolobus solfataricus P2, UniProt Q97Y96 1-287)
T1 sequence: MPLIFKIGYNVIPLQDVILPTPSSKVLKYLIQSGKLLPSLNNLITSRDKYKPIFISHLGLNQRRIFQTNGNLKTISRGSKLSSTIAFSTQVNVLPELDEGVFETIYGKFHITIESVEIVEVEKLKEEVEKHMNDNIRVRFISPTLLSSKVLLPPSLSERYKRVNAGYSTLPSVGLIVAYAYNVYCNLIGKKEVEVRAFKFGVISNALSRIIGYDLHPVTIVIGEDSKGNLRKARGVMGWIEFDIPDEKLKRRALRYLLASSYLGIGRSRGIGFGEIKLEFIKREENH
Assay: fluorescence quenching; 25 C; apparent Kd, fit with variable Hill coefficient; partial cleavage not ruled out; EMSA: NR buffer (composition not in material) with 2 uM BSA, 0.5 nM RNA (legend: 1 nM), 15 min at 20 C, 6% native PAGE in 1x TBE; fluorescence quenching at 25 C, buffer not in material
Details: protein: recombinant; chain copies: 2; label: 5'-FAM
pKd: −log10 of the molar value.
experimental_readout: pKd

binder="UGAUAAUCUCUUAUAGAAUUGAAAG (ssRNA) [FAM-CD repeat RNA]" assay_result=~7.85
